Attribution: ChEMBL document CHEMBL1145407

# test.name: Selectivity for rat recombinant FAAH over KIAA1363
measured.parameter: Ratio IC50

Form field: reported Ratio IC50 of O=C(CCCCCCc1cccc(F)c1)c1ncc(-c2ccccn2)o1
> 10000

Form field: reported Ratio IC50 of COC(=O)c1cccc(CCCCCCC(=O)c2ncc(-c3ccccn3)o2)c1
> 250000

Form field: reported Ratio IC50 of Cc1ccccc1CCCCCCC(=O)c1ncc(-c2ccccn2)o1
> 3300

Form field: reported Ratio IC50 of O=C(CCCCCCc1cccnc1)c1ncc(-c2ccccn2)o1
> 5000

Form field: reported Ratio IC50 of COc1ccccc1CCCCCCC(=O)c1ncc(-c2ccccn2)o1
> 10000

Form field: reported Ratio IC50 of O=C(CCc1ccc(Cc2ccccc2)cc1)c1ncc(-c2ccccn2)o1
> 33000

###

Kindly supply the reported pKi values for the records listed here.
# target.of.assay: Fatty-acid amide hydrolase 1 (Rattus norvegicus)
# test.name: Inhibition of rat recombinant FAAH expressed in Escherichia coli
// pKi is dimensionless: -log10 of concentration (M)

Form field: reported pKi of O=C(CCCCC(=O)c1ncc(-c2ccccn2)o1)Nc1ccccc1
5.51

Form field: reported pKi of COC(=O)CCCCC(=O)c1ncc(-c2ccccn2)o1
5.74

Form field: reported pKi of O=C(CCCCCOc1ccccc1)c1ncc(-c2ccccn2)o1
7.85

Form field: reported pKi of O=C(CCCCC#Cc1ccccc1)c1ncc(-c2ccccn2)o1
7.60

Form field: reported pKi of O=C(CCCCC#Cc1cccc(C(F)(F)F)c1)c1ncc(-c2ccccn2)o1
8.00

Form field: reported pKi of O=C(CCCCCCc1ccccn1)c1ncc(-c2ccccn2)o1
6.92

Form field: reported pKi of O=C(CCCCCCc1ccc2ccccc2c1)c1ncc(-c2ccccn2)o1
7.96

Form field: reported pKi of O=C(CCCCCCc1ccc(F)cc1)c1ncc(-c2ccccn2)o1
8.49

Form field: reported pKi of O=C(CCCCCCc1cccc(C(F)(F)F)c1)c1ncc(-c2ccccn2)o1
9.00

###

Kindly supply the reported pKi values for the records listed here.
# target.of.assay: UniProtKB P97612
# test.name: Inhibition of rat recombinant FAAH expressed in Escherichia coli
// pKi is dimensionless: -log10 of concentration (M)

Form field: reported pKi of O=C(CCCCSCc1ccccc1)c1ncc(-c2ccccn2)o1
7.60

Form field: reported pKi of O=C(COCCCCc1ccccc1)c1ncc(-c2ccccn2)o1
7.22

Form field: reported pKi of Cc1cccc(CCCCCCC(=O)c2ncc(-c3ccccn3)o2)c1
8.48

Form field: reported pKi of CC(C)(C)OC(=O)Nc1ccc(C#CCCCCC(=O)c2ncc(-c3ccccn3)o2)cc1
7.64

Form field: reported pKi of O=C(CCCCC#Cc1cccc(Cl)c1Cl)c1ncc(-c2ccccn2)o1
8.30

Form field: reported pKi of O=C(CCl)c1ncc(-c2ccccn2)o1
6.10

Form field: reported pKi of O=C(CCCCCCc1ccc(Cl)cc1)c1ncc(-c2ccccn2)o1
8.57

Form field: reported pKi of CC(C)(C)OC(=O)Nc1cccc(CCCCCCC(=O)c2ncc(-c3ccccn3)o2)c1
8.62

Form field: reported pKi of O=C(CCCCC#Cc1ccccc1F)c1ncc(-c2ccccn2)o1
8.10

Form field: reported pKi of CS(=O)(=O)c1ccccc1CCCCCCC(=O)c1ncc(-c2ccccn2)o1
7.43

###

# test.name: Selectivity for rat recombinant FAAH over TGH
Under this convention, Met denotes Ratio IC50 strictly below 40 and Not met denotes Ratio IC50 at or above 40.

Please state whether Ratio IC50 is below 40 for O=C(CCCCCCc1cccc(Cl)c1)c1ncc(-c2ccccn2)o1
Not met

Please state whether Ratio IC50 is below 40 for O=C(CCCCCCc1ccc(C(F)(F)F)cc1)c1ncc(-c2ccccn2)o1
Met

Please state whether Ratio IC50 is below 40 for CS(=O)(=O)c1ccccc1CCCCCCC(=O)c1ncc(-c2ccccn2)o1
Met

Please state whether Ratio IC50 is below 40 for O=C(CCCCCCc1ccccc1F)c1ncc(-c2ccccn2)o1
Met

Please state whether Ratio IC50 is below 40 for O=C(CCc1ccc(OCc2ccccc2)cc1)c1ncc(-c2ccccn2)o1
Not met

Please state whether Ratio IC50 is below 40 for O=C(CCc1ccc(OCc2ccccc2)cc1)c1nc2ncccc2o1
Not met

Please state whether Ratio IC50 is below 40 for O=C(CCc1cccc(OCc2ccccc2)c1)c1ncc(-c2ccccn2)o1
Met

Please state whether Ratio IC50 is below 40 for O=C(CCCCCCc1ccc2ccccc2c1)c1ncc(-c2ccccn2)o1
Met

Please state whether Ratio IC50 is below 40 for Nc1ccc(CCCCCCC(=O)c2ncc(-c3ccccn3)o2)cc1
Not met

Please state whether Ratio IC50 is below 40 for CCCCCCc1ccc(CCCCCCC(=O)c2ncc(-c3ccccn3)o2)cc1
Not met

###

# test.name: Selectivity for rat recombinant FAAH over TGH
Under this convention, Y denotes Ratio IC50 strictly below 100 and N denotes Ratio IC50 at or above 100.

Please state whether Ratio IC50 is below 100 for O=C(CCCCCCc1ccc(F)cc1)c1ncc(-c2ccccn2)o1
Y

Please state whether Ratio IC50 is below 100 for O=C(CCc1ccc(Cc2ccccc2)cc1)c1ncc(-c2ccccn2)o1
N

Please state whether Ratio IC50 is below 100 for CSc1ccc(CCCCCCC(=O)c2ncc(-c3ccccn3)o2)cc1
Y

Please state whether Ratio IC50 is below 100 for O=C(CCCCCCc1ccc(Cl)cc1)c1ncc(-c2ccccn2)o1
Y

Please state whether Ratio IC50 is below 100 for O=C(CCc1ccc(COc2ccccc2)cc1)c1ncc(-c2ccccn2)o1
N

Please state whether Ratio IC50 is below 100 for CS(=O)(=O)c1cccc(CCCCCCC(=O)c2ncc(-c3ccccn3)o2)c1
N

Please state whether Ratio IC50 is below 100 for O=C(CCCCCCc1cccs1)c1ncc(-c2ccccn2)o1
Y

Please state whether Ratio IC50 is below 100 for O=C(CCCCCCc1ccccc1Cl)c1ncc(-c2ccccn2)o1
Y

###

# test.name: Selectivity for rat recombinant FAAH over KIAA1363
Kindly supply the reported Ratio IC50 values for the records listed here.

Form field: reported Ratio IC50 of CCCCCCc1ccc(CCCCCCC(=O)c2ncc(-c3ccccn3)o2)cc1
> 3300

Form field: reported Ratio IC50 of O=C(CCCCCCc1cccc(C(F)(F)F)c1)c1ncc(-c2ccccn2)o1
> 5000

Form field: reported Ratio IC50 of O=C(CCc1ccc(OCc2ccccc2)cc1)c1nc2ncccc2o1
7000

Form field: reported Ratio IC50 of CS(=O)(=O)c1ccc(CCCCCCC(=O)c2ncc(-c3ccccn3)o2)cc1
> 2000

Form field: reported Ratio IC50 of CSc1ccc(CCCCCCC(=O)c2ncc(-c3ccccn3)o2)cc1
> 5000

Form field: reported Ratio IC50 of COC(=O)c1ccccc1CCCCCCC(=O)c1ncc(-c2ccccn2)o1
> 250000

Form field: reported Ratio IC50 of CS(=O)(=O)c1cccc(CCCCCCC(=O)c2ncc(-c3ccccn3)o2)c1
> 25000

Form field: reported Ratio IC50 of O=C(CCc1ccc(COc2ccccc2)cc1)c1ncc(-c2ccccn2)o1
> 50000

Form field: reported Ratio IC50 of O=C(CCCCCCc1ccccc1Cl)c1ncc(-c2ccccn2)o1
> 5000

Form field: reported Ratio IC50 of Nc1ccc(CCCCCCC(=O)c2ncc(-c3ccccn3)o2)cc1
> 25000

Form field: reported Ratio IC50 of O=C(CCCCCCc1cccs1)c1ncc(-c2ccccn2)o1
> 5000

###

Kindly supply the reported Ki values for the records listed here.
# target.of.assay: Fatty-acid amide hydrolase 1 (Rattus norvegicus, UniProt P97612)
# Sequence (P97612 whole entry): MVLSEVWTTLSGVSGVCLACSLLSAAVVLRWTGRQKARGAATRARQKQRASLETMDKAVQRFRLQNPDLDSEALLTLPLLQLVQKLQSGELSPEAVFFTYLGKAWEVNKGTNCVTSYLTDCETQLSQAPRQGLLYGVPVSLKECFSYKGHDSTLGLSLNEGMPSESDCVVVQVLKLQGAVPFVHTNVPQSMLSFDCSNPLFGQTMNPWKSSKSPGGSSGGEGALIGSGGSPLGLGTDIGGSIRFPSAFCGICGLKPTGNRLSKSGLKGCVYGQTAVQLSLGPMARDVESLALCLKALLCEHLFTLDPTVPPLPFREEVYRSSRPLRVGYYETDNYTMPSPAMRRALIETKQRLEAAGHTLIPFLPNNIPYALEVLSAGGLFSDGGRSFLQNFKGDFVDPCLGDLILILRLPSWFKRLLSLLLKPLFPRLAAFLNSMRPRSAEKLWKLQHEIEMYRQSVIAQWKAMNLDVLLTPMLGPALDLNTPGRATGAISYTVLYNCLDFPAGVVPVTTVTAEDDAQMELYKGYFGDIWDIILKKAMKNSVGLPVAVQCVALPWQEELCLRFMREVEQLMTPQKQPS
# test.name: Inhibition of rat recombinant FAAH expressed in Escherichia coli
The reply should be a number in µM, with the unit left off.

Form field: reported Ki of Cc1ccc(CCCCCCC(=O)c2ncc(-c3ccccn3)o2)cc1
0.0028

Form field: reported Ki of O=C(CCCCC(O)Cc1ccccc1)c1ncc(-c2ccccn2)o1 (stereo not given)
0.2

Form field: reported Ki of O=C(CCCC[S+]([O-])Cc1ccccc1)c1ncc(-c2ccccn2)o1 (stereo not given)
2.5

Form field: reported Ki of O=C(CCCCCCc1cccs1)c1ncc(-c2ccccn2)o1
0.0043

Form field: reported Ki of CN(CCCc1ccccc1)CCC(=O)c1ncc(-c2ccccn2)o1
0.2

Form field: reported Ki of CN(CCCCC(=O)c1ncc(-c2ccccn2)o1)Cc1ccccc1
0.2

Form field: reported Ki of O=C(CCCCCS(=O)(=O)c1ccccc1)c1ncc(-c2ccccn2)o1
6

Form field: reported Ki of O=C(CCCCC#Cc1ccccc1C(F)(F)F)c1ncc(-c2ccccn2)o1
0.016

Form field: reported Ki of O=C(CCCCC#Cc1ccncc1)c1ncc(-c2ccccn2)o1
0.15

###

Kindly supply the reported Ratio IC50 values for the records listed here.
# test.name: Selectivity for rat recombinant FAAH over TGH
Write no unit; give the number alone.

Form field: reported Ratio IC50 of Cc1ccccc1CCCCCCC(=O)c1ncc(-c2ccccn2)o1
100

Form field: reported Ratio IC50 of O=C(CCc1ccc(Sc2ccccc2)cc1)c1ncc(-c2ccccn2)o1
30

Form field: reported Ratio IC50 of O=C(CCCCCCc1ccccc1C(F)(F)F)c1ncc(-c2ccccn2)o1
230

Form field: reported Ratio IC50 of CSc1ccccc1CCCCCCC(=O)c1ncc(-c2ccccn2)o1
300

Form field: reported Ratio IC50 of COc1cccc(CCCCCCC(=O)c2ncc(-c3ccccn3)o2)c1
50

Form field: reported Ratio IC50 of Cc1ccc(CCCCCCC(=O)c2ncc(-c3ccccn3)o2)cc1
125

Form field: reported Ratio IC50 of O=C(CCCCCCc1ccccn1)c1ncc(-c2ccccn2)o1
33

Form field: reported Ratio IC50 of Cc1cccc(CCCCCCC(=O)c2ncc(-c3ccccn3)o2)c1
170

Form field: reported Ratio IC50 of O=C(COCCCCc1ccccc1)c1ncc(-c2ccccn2)o1
34

Form field: reported Ratio IC50 of COc1ccc(CCCCCCC(=O)c2ncc(-c3ccccn3)o2)cc1
250

Form field: reported Ratio IC50 of O=C(CCc1ccc(Nc2ccccc2)cc1)c1ncc(-c2ccccn2)o1
120

Form field: reported Ratio IC50 of O=C(CCCCCCc1ccc([N+](=O)[O-])cc1)c1ncc(-c2ccccn2)o1
100000

Form field: reported Ratio IC50 of CSc1cccc(CCCCCCC(=O)c2ncc(-c3ccccn3)o2)c1
30

Form field: reported Ratio IC50 of CCCCCCc1cccc(CCCCCCC(=O)c2ncc(-c3ccccn3)o2)c1
250

Form field: reported Ratio IC50 of O=C(CCCCCCc1cccnc1)c1ncc(-c2ccccn2)o1
50

Form field: reported Ratio IC50 of COC(=O)c1ccccc1CCCCCCC(=O)c1ncc(-c2ccccn2)o1
25000

Form field: reported Ratio IC50 of O=C(CCCCCCc1cccc(Cl)c1Cl)c1ncc(-c2ccccn2)o1
70

Form field: reported Ratio IC50 of COC(=O)c1cccc(CCCCCCC(=O)c2ncc(-c3ccccn3)o2)c1
25000
